# experiment.description: NCI Yeast Anticancer Drug Screen. Data for the wt1 strain (AID 149);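 further: 0% = growth of vehicle-treated wt1 cultures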
# condition.context: S. cerevisiae wt1 strain (SPY 50644) growth inhibition; at 33.0 µM
The panel holds about 79,000 compounds, 15% with a hit somewhere; the sample as a whole holds those more often. Calls of active or inactive are those of the source. No stated cut-off is given here; in the data, active means growth inhibition above about 70%; inactive means the rest.
Returns: one label drawn from active, inactive

Illustrative cases are given below, each with its answer.
[
  {
    "molecule": "CC(C)(C)c1cc([N+](=O)[O-])cc([N+](=O)[O-])c1O",
    "class.label": "inactive"
  },
  {
    "molecule": "C[CH2][Sn]([CH2]C)([O]S(C)(=O)=O)[O]S(C)(=O)=O",
    "class.label": "inactive"
  },
  {
    "molecule": "CC1=C2C(=C[C@@](C)(CO)[C@@H]2O)C(=O)[C@](C)(O)C12CC2",
    "class.label": "inactive"
  },
  {
    "molecule": "Oc1cccc2nc3ccccc3nc12",
    "class.label": "inactive"
  },
  {
    "molecule": "CCCCCCCCCC[Se]C#N",
    "class.label": "inactive"
  },
  {
    "molecule": "C[CH2][Sn]1([CH2]C)[O]C2C(O)OC(CO)C(O)C2[O]1 (stereo unspecified)",
    "class.label": "inactive"
  },
  {
    "molecule": "CC[C@]1(O)CC(OC2CC(N(C)C)C(O)C(C)O2)c2c(cc3c(c2O)C(=O)c2c(O)cccc2C3=O)[C@@H]1C(=O)OC (stereo partly specified)",
    "class.label": "active"
  },
  {
    "molecule": "O=C(O)C1C2CCC(C2)C1c1ccccc1 (stereo unspecified)",
    "class.label": "inactive"
  }
]

Ask | What classification did CC1CN=C(Nc2ccccc2)S1 (stereo unspecified) end up with in this test?
Reply | inactive

Ask | What classification did COc1cccc2c1C(=O)c1c(O)c3c(c(O)c1C2=O)C[C@@](O)(/C(C)=N\O)C[C@@H]3OC1CC(N)C(O)C(C)O1 (stereo partly specified) end up with in this test?
Reply | inactive

Ask | What classification did `Nc1nnc(N)n1-n1c(N)nnc1N` end up with in this test?
Reply | inactive

---

# experiment.description: NCI Yeast Anticancer Drug Screen. Data for the bub3 strain (AID 167)
# condition.context: S. cerevisiae bub3 mutant strain, at 50.0 µM, active compounds read high
# Experimental: Growth inhibition of yeast strains with defined genetic alterations is measured as a screen for potential anti-cancer activity. Selected strains with alterations in DNA damage repair or cell cycle control were exposed to compounds and growth inhibition was measured relative to vehicle treated controls. The strain used in this assay is bub3
This is part of a sample that, as a whole, favours compounds with a hit. Of some 79,000 tested, about 15% had one in any assay. Activity calls are given as the source filed them. Cut-off read from the data, not from the text of the source: active = growth inhibition above about 70%; inactive = the rest.
Reported growth inhibition is given for each of the following compounds.

[
  {
    "compound": "CCOC(=O)C1C2OC(=O)C(C(=O)C2CN(CCCl)CCCl)C1C1CC=C(CC2=CCC(C3C4C(=O)OC(C(CN(CCCl)CCCl)C4=O)C3C(=O)OCC)CC2)CC1 (stereo unspecified)",
    "growth inhibition": "49.5% (inactive)"
  },
  {
    "compound": "CCOC(=O)C(/N=N\\c1nn[nH]n1)/N=N/c1ncn[nH]1 (stereo unspecified)",
    "growth inhibition": "98.8% (active)"
  }
]

Ask | Requested read-out: growth inhibition. Entry: `C1CC[N-]CC1.[Cl][Au]([Cl])[Cl]`
Reply | 48.9% (inactive)

Ask | Requested read-out: growth inhibition. Entry: OC1(c2ccccc2)CC2CCC(C1)N2CCCC(O)(c1ccccc1)c1ccccc1 (stereo unspecified)
Reply | 53.7% (inactive)

Ask | Requested read-out: growth inhibition. Entry: CC12CCC(O)CC1CCC1C2CCC2(C)C1CC1CC(=O)OC12 (stereo unspecified)
Reply | 98.9% (active)

Ask | Requested read-out: growth inhibition. Entry: S=P(Nc1ccccc1)(Oc1ccccc1)c1ccccc1 (stereo unspecified)
Reply | 92.4% (active)

Ask | Requested read-out: growth inhibition. Entry: `Oc1cccnc1[Se]`
Reply | 99.2% (active)

---

# experiment.description: NCI Yeast Anticancer Drug Screen. Data for the sgs1 strain (AID 173);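 further: 0% = growth of vehicle-only control cultures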
# condition.context: S. cerevisiae sgs1 mutant, at 1.2 µM, active compounds read high
The panel holds about 79,000 compounds, 15% with a hit somewhere; the sample as a whole holds those more often.
measured.quantity: growth inhibition (%)
Express your answer in %, writing the number without its unit.

[
  {
    "compound": "Cc1c(N)nc([C@H](CC(N)=O)NC[C@H](N)C(N)=O)nc1C(=O)N[C@H](C(=O)N[C@H](C)[C@@H](O)[C@H](C)C(=O)N[C@H](C(=O)NCCc1nc(-c2nc(C(=O)NCCC[S+](C)C)cs2)cs1)[C@@H](C)O)C(OC1OC(CO)C(O)C(O)C1OC1OC(CO)C(O)C(OC(N)=O)C1O)c1cnc[nH]1 (some centres not stated)",
    "growth inhibition (%)": 2
  },
  {
    "compound": "Cc1ccc2nc3sc(=O)sc3nc2c1",
    "growth inhibition (%)": 42
  }
]

Ask | Requested read-out: growth inhibition. Entry: `[O-][n+]1c2cccc(O)c2[n+]([O-])c2cccc(O)c21`
Reply | 6

Ask | Requested read-out: growth inhibition. Entry: Cc1ccc2c(c1)C1(C)c3cc(C)ccc3SP1S2 (configuration not stated)
Reply | 6

Ask | Requested read-out: growth inhibition. Entry: C[CH2][Sn]1([CH2]C)[O]C2C(O)OC(CO)C(O)C2[O]1 (configuration not stated)
Reply | -12

Ask | Requested read-out: growth inhibition. Entry: `C=C[C@H]1CN2CC[C@H]1C[C@@H]2[C@@H](O)c1ccnc2ccccc12`
Reply | -3

Ask | Requested read-out: growth inhibition. Entry: COc1cccc2c1C(=O)c1c(O)c3c(c(O)c1C2=O)C[C@@](O)(/C(C)=N\O)C[C@@H]3OC1CC(N)C(O)C(C)O1 (some centres not stated)
Reply | 0

Ask | Requested read-out: growth inhibition. Entry: O=C1c2ccc3ccccc3c2CCC1N1CCCCC1 (configuration not stated)
Reply | 4

---

# experiment.description: NCI Yeast Anticancer Drug Screen. Data for the cln2 rad14 strain (AID 165);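 further: 0% = growth equal to vehicle treated cultures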
# condition.context: S. cerevisiae cln2 rad14 strain, at 5.0 µM (retest, dose inferred, filed as 0.5), active compounds read high
About 79,000 compounds went through this panel and 15% of them were active in at least one assay; those are over-represented in the sample as a whole.
growth inhibition of 40% or higher: yes (1). Under 40%: no (0).

Ask | Check if growth inhibition >= 40% (inclusive). Item: `Cc1ccc(N=P(c2ccccc2)(c2ccccc2)c2ccccc2)cc1.[I][Hg][I]`
Reply | yes (1)

Ask | Check if growth inhibition >= 40% (inclusive). Item: CC1(O)CC([CH2][Hg][I])OC([CH2][Hg][I])C1 (configuration not stated)
Reply | yes (1)

---

# experiment.description: NCI Yeast Anticancer Drug Screen. Data for the sgs1 mgt1 strain (AID 161);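 further: 0% = growth of cultures given vehicle only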
# condition.context: S. cerevisiae sgs1 mgt1 strain, at 5.0 µM (retest, dose inferred, filed as 0.5)
About 79,000 compounds went through this panel and 15% of them were active in at least one assay; those are over-represented in the sample as a whole. The source made the active and inactive calls. Rule as the data show it: active = growth inhibition above about 70%; inactive = the rest.
Returns: one label drawn from active, inactive

Illustrative cases are given below, each with its answer.
[
  {
    "molecule": "CC[n+]1c(/C=C/c2ccc(N(CCCl)CCCl)cc2)ccc2cc(I)ccc21",
    "class.label": "active"
  },
  {
    "molecule": "CCN(Cc1ccccc1)CC(O)c1ccc(Cl)c(Cl)c1 (stereo not given)",
    "class.label": "inactive"
  },
  {
    "molecule": "O=[N+]([O-])c1ccc(SC2CCCCCCC2Cl)c([N+](=O)[O-])c1 (stereo not given)",
    "class.label": "inactive"
  }
]

Ask | What classification did CC(Cc1ccccc1)N(C)Cc1nc(C2CCC([N+](=O)[O-])O2)no1 (stereo not given) end up with in this test?
Reply | inactive

Ask | What classification did C[C@]12CCc3nonc3C1CC[C@@H]1C2CC[C@]2(C)C(=O)CCC12 (stereo not given in full) end up with in this test?
Reply | inactive

---

# experiment.description: NCI Yeast Anticancer Drug Screen. Data for the mec2-1 strain (AID 157)
# condition.context: S. cerevisiae mec2-1 strain, at 1.2 µM
# Experimental: Growth inhibition of yeast strains with defined genetic alterations is measured as a screen for potential anti-cancer activity. Selected strains with alterations in DNA damage repair or cell cycle control were exposed to compounds and growth inhibition was measured relative to vehicle treated controls. The strain used in this assay is mec2-1
Compounds without any hit were thinned out: in the full panel of roughly 79,000, 15% have a hit. Calls of active or inactive are those of the source. No stated cut-off is given here; in the data, active means growth inhibition above about 70%; inactive means the rest.
Returns: one label drawn from YES = active, NO = inactive

[
  {
    "compound": "COC(COC(=O)N1CCN(C=O)CC1)C1=C(N2CC2)C(=O)C(C)=C(N2CC2)C1=O (stereo not given)",
    "class.label": "NO"
  },
  {
    "compound": "COc1cc([C@@H]2c3cc4c(cc3C[C@@H]3COC(=O)C32)OCO4)cc(OC)c1O (stereo not given in full)",
    "class.label": "NO"
  },
  {
    "compound": "BrCC[N+]12CC[N+](CCBr)(CC1)C2",
    "class.label": "NO"
  },
  {
    "compound": "CSc1ccccc1[As](C)C",
    "class.label": "NO"
  }
]

Ask | What classification did `N#CC(C#N)=Cc1ccc(C#N)cc1` end up with in this test?
Reply | NO

Ask | What classification did `C[C@]12CC[C@H](O)CC1=CC[C@@H]1[C@@H]2CC[C@]2(C)C(=O)CC[C@@H]12` end up with in this test?
Reply | NO

Ask | What classification did CCC1(OC(=O)CN)C(=O)OCc2c1cc1n(c2=O)Cc2cc3ccccc3nc2-1 (stereo not given) end up with in this test?
Reply | NO

Ask | What classification did C[C@]12CCC(=O)C=C1CC[C@@H]1C2CC[C@@]2(C)C1CC[C@@H]2OC(=O)C12OC1CCC2=O (stereo not given in full) end up with in this test?
Reply | NO

Ask | What classification did `CC[C@@]1(O)C(=O)OCc2c1cc1n(c2=O)Cc2cc3ccccc3nc2-1` end up with in this test?
Reply | NO

Ask | What classification did `O=[N+]([O-])c1ccc(-n2nc3ccc4c(no[n+]4[O-])c3[n+]2[O-])c([N+](=O)[O-])c1` end up with in this test?
Reply | NO

Ask | What classification did `CC[C@@]1(O)C(=O)OCc2c1cc1n(c2=O)Cc2cc3c(NC(=O)CN)cccc3nc2-1` end up with in this test?
Reply | NO

Ask | What classification did `[O-][n+]1c2cccc(O)c2[n+]([O-])c2cccc(O)c21` end up with in this test?
Reply | NO

Ask | What classification did `NNc1ccccc1Cl` end up with in this test?
Reply | NO

Ask | What classification did CCCCCCCCCCCCCCCCP(=O)(O)OP(=O)(O)OCC1OC(n2ccc(N)nc2=O)C(O)C1O (stereo not given) end up with in this test?
Reply | NO

Ask | What classification did `[Pt].c1ccc(P(CCP(c2ccccc2)c2ccccc2)CCP(c2ccccc2)c2ccccc2)cc1` end up with in this test?
Reply | NO

Ask | What classification did `N#Cc1cc(N(CCCl)CCCl)c([N+](=O)[O-])cc1[N+](=O)[O-]` end up with in this test?
Reply | NO

Ask | What classification did `O=C(O)c1ccccc1.[Ag]` end up with in this test?
Reply | YES

Ask | What classification did `Cc1cc[n+](C2=C(Nc3cccc(C(F)(F)F)c3)C(=O)c3ccccc3C2=O)cc1` end up with in this test?
Reply | NO

Ask | What classification did `CO[C@H](/C(C)=C/C=C/C(C)=C/c1coc(C)n1)[C@H](C)[C@H]1C[C@@H](O)[C@@]2(C)O[C@H]2/C=C/[C@@H](C)[C@@H]2C[C@@H](CC(=O)O2)C[C@H]2O[C@@H]2C(=O)O1` end up with in this test?
Reply | NO

Ask | What classification did `O=S(=O)(O)c1ccc(Cl)cc1.[Cd]` end up with in this test?
Reply | NO
